Tested on: Escherichia coli IAI1
Test: growth (OD595) fold change vs plate DMSO controls (fold change (ratio)); higher = more growth
Settings: incubation time: 27 h, anaerobic, 37 °C
Where a name gives a salt, the structure may show the parent alone.
OUTCOME MEASURE: growth
Reply briefly: the number, and no unit.

Known results for compounds:
{"COMPOUND": "N=C(N)N1CCc2ccccc2C1 [Debrisoquin sulfate] (20 µM)", "growth": 1}
{"COMPOUND": "OC[C@H]1O[C@@H](O[C@@H]2[C@@H](CO)OC(O)(CO)[C@H]2O)[C@H](O)[C@@H](O)[C@H]1O (mixture of isomers) [Lactulose] (50 µM)", "growth": 0.906}

Param readout= growth; system= Escherichia coli IAI1; entry= O=C(C1CCCCC1)N1CC(=O)N2CCc3ccccc3C2C1 (centres undefined) [Praziquantel] (20 µM) ; returns value. 0.975

Please state recorded growth (tested on Escherichia coli IAI1) of Cc1cc(-c2ccccc2)nnc1NCCN1CCOCC1 [Minaprine dihydrochloride] (20 µM) 0.985

Give Escherichia coli IAI1 growth for O=C1OC(CN2CCOCC2)CN1/N=C/c1ccc([N+](=O)[O-])o1 (centres undefined) [Furaltadone hydrochloride] (20 µM) 1.04
